# Assay system: EphA2 endogenously expressed on PC3 prostate cancer cells (UniProt P29317 24-976, limits assumed)
# Sequence (P29317 24-976 limits assumed): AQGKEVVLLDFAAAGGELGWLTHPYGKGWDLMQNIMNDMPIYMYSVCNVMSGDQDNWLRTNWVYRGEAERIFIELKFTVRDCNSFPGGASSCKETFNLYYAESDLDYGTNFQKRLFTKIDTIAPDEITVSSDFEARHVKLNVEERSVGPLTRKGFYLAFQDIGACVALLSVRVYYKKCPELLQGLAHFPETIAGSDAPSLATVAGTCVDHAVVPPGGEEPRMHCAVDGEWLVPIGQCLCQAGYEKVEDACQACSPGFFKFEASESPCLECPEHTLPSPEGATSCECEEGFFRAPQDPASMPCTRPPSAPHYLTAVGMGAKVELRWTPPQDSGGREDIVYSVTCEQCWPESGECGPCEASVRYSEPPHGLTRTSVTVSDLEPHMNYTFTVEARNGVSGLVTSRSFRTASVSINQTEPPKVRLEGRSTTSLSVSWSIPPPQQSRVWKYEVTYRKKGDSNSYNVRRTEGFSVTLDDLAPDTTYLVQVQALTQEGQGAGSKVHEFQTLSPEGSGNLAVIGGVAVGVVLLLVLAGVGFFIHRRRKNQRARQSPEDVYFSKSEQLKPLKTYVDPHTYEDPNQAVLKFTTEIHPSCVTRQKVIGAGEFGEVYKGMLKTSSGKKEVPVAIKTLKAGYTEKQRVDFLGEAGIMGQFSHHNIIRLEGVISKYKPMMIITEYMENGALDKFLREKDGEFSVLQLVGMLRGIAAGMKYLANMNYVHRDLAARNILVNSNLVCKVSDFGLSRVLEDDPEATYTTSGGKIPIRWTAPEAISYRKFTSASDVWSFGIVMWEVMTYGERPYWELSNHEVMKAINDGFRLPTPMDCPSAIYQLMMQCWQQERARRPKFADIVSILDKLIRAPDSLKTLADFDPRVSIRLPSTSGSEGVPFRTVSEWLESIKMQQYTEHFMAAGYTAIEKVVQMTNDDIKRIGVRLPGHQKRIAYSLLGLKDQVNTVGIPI
# Test method notes: cell-based or functional assay
Where no end group is shown, it is not given here. [ ]: non-standard residue; d: D form. The star is where a group is joined. Biotin = O=C1N[C@H]2[C@H](CS[C@H]2CCCCC(=O)*)N1; βAla = NCCC(=O)O; Cam = NC(=O)C*
// NB: equality with 0.5 counts as 0.0; only βlig (bias factor) strictly below is 1.0

Here's an entry: CGAWLAYPDSVPYRPK (also: N-terminally disulfide-linked homodimer, disulfide at 1, other end not in the chain, also called dimer (5); dimeric peptide (5)) [CGA-WLA-YRPK dimer (N-ter)] . Is its βlig (bias factor) below 0.5? 0.0

Here's an entry: C(Cam)GAWLAYPDSVPYRPK(Biotin) (also called monomer (10); monomeric peptide (10)) [CcamGA-WLA-YRPK-bio] . Is its βlig (bias factor) below 0.5? 0.0

Here's an entry: CGAWLAYPDSVPYR (also: homodimer: N-terminal Cys of two chains joined by disulfide, N-terminally disulfide-linked homodimer made from monomer (15*); also called dimer (4)) [CGA-WLA-YR dimer (N-ter)] . Is its βlig (bias factor) below 0.5? 1.0

Here's an entry: [βAla]WLAYPDSVPYRPKC (also: homodimer, disulfide at 15, other end not in the chain, C-terminally disulfide-linked homodimer made from monomer (19*); also called dimer (2); dimeric peptide (2)) [βA-WLA-YRPKC dimer (C-ter)] . Is its βlig (bias factor) below 0.5? 0.0

Here's an entry: Lys-linked dimer (C-ter) (also: bond at chain A 15 to a chain's C-terminus) peptide 1: [βAla]WLAYPDSVPYRPKK peptide 2: [βAla]WLAYPDSVPYRPK . Is its βlig (bias factor) below 0.5? 0.0
